Data origin: paper PMC3393750

Target: His6-tagged HIV IN / Flag-tagged LEDGF interaction (Human immunodeficiency virus type 1 group M subtype B)
Construct: Hexa-His tagged full length HIV IN was expressed and purified as follows
Test: IN-LEDGF AlphaScreen (AS) assay
Settings: 30 nM IN, 30 nM Flag-LEDGF, 30°C
Listed compounds paired with reported pIC50
Friendly reminder that pIC50 comes from taking -log10 of the concentration in mol/L.

Answered examples (3):
# compound, pIC50
rows = [
    ("COc1ccc(CNC(=O)c2ccccc2CNCc2ccc3c(c2C(=O)O)OCO3)cc1 [Compound 6]", 3.57),
    ("COc1ccc(CNC(=O)c2ccccc2CN(C)Cc2ccc3c(c2C(=O)O)OCO3)cc1 [Compound 7]", 3.66),
    ("COc1ccc(CN2CN(Cc3ccc4c(c3C(=O)O)OCO4)Cc3ccccc3C2=O)cc1 [Compound 5]", 3.22),
]

What pIC50 value was documented for this compound, C=CCN(Cc1ccccc1C(=O)NCc1ccc(OC)cc1)Cc1ccc2c(c1C(=O)O)OCO2 [Compound 9] ?
3.09

* * *

Test: Cell toxicity counter screen of virus infectivity assay
Type: cell-based
Conditions: human, HuT78 cells
readout_name: CC50 at 6 days (µM)
Record the value in µM, omitting the unit from your answer.

What value of CC50 at 6 days has been reported for the following compound? O=C(O)c1c(CN2Cc3ccccc3C(=O)N(Cc3ccccc3)C2)ccc2c1OCO2
265

* * *

System: HIV-1 with IN Q148H/G140S (QHGS)
Test: Single-round infectivity assay in 293T cells, IN QHGS mutant
Format: cell-based
Details: Human immunodeficiency virus 1, HEK-293T, read-out: EC50 cell infectivity assay, IN QHGS
readout_name: pEC50
Entry type: numeric. Quantity: pEC50, the -log10 of concentration in molar units.

Quick check: pEC50 of C=CCN(Cc1ccccc1C(=O)NC(c1ccc(OC)cc1)c1ccc(OC)cc1)Cc1ccc2c(c1C(=O)O)OCO2 ?
4.27

* * *

Target: His6-tagged HIV IN / Flag-tagged LEDGF interaction (Human immunodeficiency virus type 1 group M subtype B, UniProt P12497)
Construct: Hexa-His tagged full length HIV IN was expressed and purified as follows
Assay: IN-LEDGF AlphaScreen (AS) assay
Details: 30 nM IN, 30 nM Flag-LEDGF, 30°C
readout_name: pIC50
Bear in mind: pIC50 is minus log10 of a mol/L concentration; give just that figure.

# compound, pIC50
measured = [
    ("O=C1Cc2ccccc2/C1=C\\c1ccc2c(c1C(=O)O)OCO2 [Compound 2]", 3.70),
    ("C=CCN(Cc1ccccc1C(=O)NC(CCC)c1ccc(OC)cc1)Cc1ccc2c(c1C(=O)O)OCO2 (centres unmarked) [Compound 10]", 4.54),
    ("CN(Cc1ccccc1C(=O)NCC1CCCCC1)Cc1ccc2c(c1C(=O)O)OCO2 [Compound 8]", 4.00),
    ("O=C(O)c1c(/C=C2\\c3ccccc3CC2O)ccc2c1OCO2 (centres unmarked) [Compound 3]", 3.57),
]

We next turn to a different compound, shown below.
Quick one: pIC50 of O=C(O)c1c(CN2Cc3ccccc3C(=O)N(Cc3ccccc3)C2)ccc2c1OCO2 [Compound 4] ?
3.96
